# TARGET_DESC: METTL15^70–407 (Homo sapiens, UniProt A6NJ78, D119A)
# Construct: residues 70-407; N-terminal SUMO tag cleaved with ULP1; E. coli Rosetta (DE3)
# Sequence (A6NJ78 70-407 D119A): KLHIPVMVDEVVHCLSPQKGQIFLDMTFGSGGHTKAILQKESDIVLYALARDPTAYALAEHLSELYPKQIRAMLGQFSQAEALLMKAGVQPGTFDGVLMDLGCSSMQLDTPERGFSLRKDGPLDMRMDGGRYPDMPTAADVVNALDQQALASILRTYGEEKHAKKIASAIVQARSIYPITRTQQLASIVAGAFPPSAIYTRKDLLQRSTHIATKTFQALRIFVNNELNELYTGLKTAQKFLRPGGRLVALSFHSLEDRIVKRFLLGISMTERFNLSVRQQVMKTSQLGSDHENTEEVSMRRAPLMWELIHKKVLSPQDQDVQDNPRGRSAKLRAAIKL
# MEASUREMENT_DESCRIPTION: isothermal titration calorimetry

{"columns": ["MOLECULE", "MEASURE_UNIT", "Kd"],
 "data": [
  ["C[S+](CC[C@H](N)C(=O)O)C[C@H]1O[C@@H](n2cnc3c(N)ncnc32)[C@H](O)[C@@H]1O (stereo partly shown)", "µM", 17.3]
]}
